Hello, the source for this data is patent US20120245137A1, in case you need it.

Test system: human α1G T-type channels (Homo sapiens, UniProt O43497)
Protocol text: T-type calcium channel block, whole cell patch clamp, α1G
Reported conditions: HEK cells stably expressing human α1G; mainly non-inactivated protocol; values above 10,000 nM represented as 10000
pIC50: −log10 of the molar value.
Assay readout: pIC50

Some compounds with known pIC50 results, for comparison:
O=S(=O)(N[C@H]1CC[C@@](F)(S(=O)(=O)c2cccc(C(F)(F)F)c2)CC1)c1ccc(C(F)(F)F)cc1 [Compound 301] = < 5.00
CC(C)(C)NC(=O)CNC1CCC(C)(S(=O)(=O)c2cccc(C(F)(F)F)c2)CC1 (stereo not drawn) [Compound 15] = < 5.00

Please look at the following compound next.
Task item: State recorded pIC50 with human α1G T-type channels (Homo sapiens, UniProt O43497), entry O=C(N[C@H]1CC[C@H](S(=O)(=O)c2cccc(C(F)(F)F)c2)CC1)C1(C(F)(F)F)CCC1 [Compound 66] , no comment.
Reply: < 5.00

* * *

Exercise: for every item that follows, state its recorded pIC50.
Test system: Human Cav 2.2 channels (Homo sapiens, UniProt Q00975)
Sequence (Q00975 whole entry): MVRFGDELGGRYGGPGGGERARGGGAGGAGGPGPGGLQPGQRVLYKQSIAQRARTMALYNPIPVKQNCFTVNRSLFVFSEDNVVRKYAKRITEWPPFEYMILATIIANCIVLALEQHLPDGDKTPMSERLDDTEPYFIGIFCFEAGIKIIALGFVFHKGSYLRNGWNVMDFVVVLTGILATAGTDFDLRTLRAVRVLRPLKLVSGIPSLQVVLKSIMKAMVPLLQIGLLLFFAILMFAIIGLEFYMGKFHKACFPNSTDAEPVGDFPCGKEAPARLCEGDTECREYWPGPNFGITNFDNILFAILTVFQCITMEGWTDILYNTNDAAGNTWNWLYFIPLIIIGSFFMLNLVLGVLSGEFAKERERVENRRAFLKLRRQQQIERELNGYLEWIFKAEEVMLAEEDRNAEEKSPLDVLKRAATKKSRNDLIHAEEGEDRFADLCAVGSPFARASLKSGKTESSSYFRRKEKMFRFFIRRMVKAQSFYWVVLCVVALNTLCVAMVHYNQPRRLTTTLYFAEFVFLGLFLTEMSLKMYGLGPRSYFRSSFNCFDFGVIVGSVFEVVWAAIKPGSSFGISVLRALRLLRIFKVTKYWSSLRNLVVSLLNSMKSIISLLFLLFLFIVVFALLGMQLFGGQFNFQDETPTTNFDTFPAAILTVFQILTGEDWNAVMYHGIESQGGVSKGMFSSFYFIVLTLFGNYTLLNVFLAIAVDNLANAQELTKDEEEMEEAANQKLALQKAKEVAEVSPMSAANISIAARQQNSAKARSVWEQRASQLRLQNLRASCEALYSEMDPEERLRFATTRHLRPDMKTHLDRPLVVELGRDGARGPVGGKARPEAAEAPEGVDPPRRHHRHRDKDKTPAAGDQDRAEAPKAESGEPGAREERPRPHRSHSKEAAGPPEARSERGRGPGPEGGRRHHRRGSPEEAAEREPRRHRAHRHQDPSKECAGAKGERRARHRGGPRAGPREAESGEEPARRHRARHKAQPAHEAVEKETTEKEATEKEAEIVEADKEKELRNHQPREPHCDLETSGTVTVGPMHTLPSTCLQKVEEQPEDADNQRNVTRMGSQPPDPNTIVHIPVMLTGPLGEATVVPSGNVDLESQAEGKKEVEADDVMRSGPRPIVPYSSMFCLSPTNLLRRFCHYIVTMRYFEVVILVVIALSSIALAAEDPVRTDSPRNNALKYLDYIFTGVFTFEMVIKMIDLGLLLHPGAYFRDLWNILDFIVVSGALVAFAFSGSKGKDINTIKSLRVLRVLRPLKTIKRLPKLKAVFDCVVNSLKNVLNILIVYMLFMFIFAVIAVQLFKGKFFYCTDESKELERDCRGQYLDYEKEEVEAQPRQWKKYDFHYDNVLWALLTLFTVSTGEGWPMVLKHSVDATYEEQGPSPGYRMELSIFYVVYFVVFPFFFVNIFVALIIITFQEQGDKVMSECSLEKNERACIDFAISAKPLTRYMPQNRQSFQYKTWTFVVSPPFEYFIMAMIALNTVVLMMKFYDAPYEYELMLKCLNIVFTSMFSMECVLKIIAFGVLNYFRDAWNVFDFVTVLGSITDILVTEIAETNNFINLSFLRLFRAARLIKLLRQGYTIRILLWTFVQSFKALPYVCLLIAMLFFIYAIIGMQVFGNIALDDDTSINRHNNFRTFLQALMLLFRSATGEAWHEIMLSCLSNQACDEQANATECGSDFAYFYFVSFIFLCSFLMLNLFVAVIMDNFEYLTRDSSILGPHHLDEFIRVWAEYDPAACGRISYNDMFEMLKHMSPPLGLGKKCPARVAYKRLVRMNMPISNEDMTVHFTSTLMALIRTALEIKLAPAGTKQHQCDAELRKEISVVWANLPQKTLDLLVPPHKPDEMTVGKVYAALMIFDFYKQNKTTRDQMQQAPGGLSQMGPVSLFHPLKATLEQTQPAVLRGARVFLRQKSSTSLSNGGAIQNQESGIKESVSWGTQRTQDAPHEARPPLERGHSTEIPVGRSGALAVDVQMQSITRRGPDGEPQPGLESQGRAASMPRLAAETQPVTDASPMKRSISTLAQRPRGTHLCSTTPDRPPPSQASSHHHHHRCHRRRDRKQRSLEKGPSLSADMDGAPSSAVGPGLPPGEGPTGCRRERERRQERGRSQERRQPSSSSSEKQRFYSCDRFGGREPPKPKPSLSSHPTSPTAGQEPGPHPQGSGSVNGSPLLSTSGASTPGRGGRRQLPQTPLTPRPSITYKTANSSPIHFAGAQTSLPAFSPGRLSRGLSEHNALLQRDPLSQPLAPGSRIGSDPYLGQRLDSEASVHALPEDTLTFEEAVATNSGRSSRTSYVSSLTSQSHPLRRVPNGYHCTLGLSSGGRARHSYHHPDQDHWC
Sequence (P54289 25-1103 partner): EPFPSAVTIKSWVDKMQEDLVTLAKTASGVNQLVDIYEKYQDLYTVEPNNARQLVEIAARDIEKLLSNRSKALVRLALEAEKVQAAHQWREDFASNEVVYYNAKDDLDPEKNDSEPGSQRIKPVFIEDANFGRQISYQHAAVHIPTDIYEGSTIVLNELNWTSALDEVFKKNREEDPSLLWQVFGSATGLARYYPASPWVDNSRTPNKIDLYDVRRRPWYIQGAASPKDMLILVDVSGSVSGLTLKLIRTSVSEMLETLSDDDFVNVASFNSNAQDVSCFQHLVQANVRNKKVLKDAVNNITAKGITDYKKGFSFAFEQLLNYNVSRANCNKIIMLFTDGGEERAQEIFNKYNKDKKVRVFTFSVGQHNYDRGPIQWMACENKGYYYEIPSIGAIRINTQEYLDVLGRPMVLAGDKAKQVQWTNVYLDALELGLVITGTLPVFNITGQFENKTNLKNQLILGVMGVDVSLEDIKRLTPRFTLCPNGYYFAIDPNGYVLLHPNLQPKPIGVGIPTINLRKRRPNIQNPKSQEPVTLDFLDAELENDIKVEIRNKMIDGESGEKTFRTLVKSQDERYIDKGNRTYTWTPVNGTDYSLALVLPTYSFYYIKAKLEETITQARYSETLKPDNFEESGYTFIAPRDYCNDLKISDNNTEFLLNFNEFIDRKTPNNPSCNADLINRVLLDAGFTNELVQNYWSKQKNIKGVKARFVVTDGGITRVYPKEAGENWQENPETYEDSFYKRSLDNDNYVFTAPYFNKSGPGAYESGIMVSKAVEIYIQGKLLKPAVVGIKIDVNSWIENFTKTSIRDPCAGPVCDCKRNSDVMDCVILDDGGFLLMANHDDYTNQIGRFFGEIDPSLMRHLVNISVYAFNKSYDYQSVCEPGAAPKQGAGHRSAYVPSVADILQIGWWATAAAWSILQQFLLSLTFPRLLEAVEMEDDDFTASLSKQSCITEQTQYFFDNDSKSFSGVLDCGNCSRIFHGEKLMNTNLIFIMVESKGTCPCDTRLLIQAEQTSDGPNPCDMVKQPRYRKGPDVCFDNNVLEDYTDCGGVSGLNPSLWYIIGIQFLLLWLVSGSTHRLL
Sequence (P54284 whole entry partner): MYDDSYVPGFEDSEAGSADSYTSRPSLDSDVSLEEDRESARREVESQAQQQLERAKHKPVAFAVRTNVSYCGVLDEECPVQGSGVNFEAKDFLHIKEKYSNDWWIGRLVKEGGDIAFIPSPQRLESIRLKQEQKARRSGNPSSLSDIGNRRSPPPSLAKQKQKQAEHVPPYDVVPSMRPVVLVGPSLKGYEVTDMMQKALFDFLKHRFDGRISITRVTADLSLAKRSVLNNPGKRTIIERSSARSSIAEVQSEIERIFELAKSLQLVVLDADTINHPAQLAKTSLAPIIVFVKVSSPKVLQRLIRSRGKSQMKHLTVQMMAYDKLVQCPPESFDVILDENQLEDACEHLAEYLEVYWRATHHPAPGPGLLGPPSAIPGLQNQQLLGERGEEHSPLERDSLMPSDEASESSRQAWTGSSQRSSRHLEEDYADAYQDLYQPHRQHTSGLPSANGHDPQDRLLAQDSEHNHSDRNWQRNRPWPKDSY
Protocol text: Fluorescent assay for CaV2.2 channels using potassium depolarization (VIPR/FLIPR)
Format: cell-based
Reported conditions: FLIPR data; closed state; read-out: CAv2.2 IC50 Closed
Numbers only, as −log10 of the molar value.

Some molecules with known pIC50 results, for comparison:
CC(C)([C@H]1C[C@@H](NS(=O)(=O)c2ccc(C(F)(F)F)cc2)C1)S(=O)(=O)c1cc(F)cc(C(F)(F)F)c1 [Compound 598] = 5.24
CC(C)([C@H]1C[C@@H](CNC(=O)c2ncc(C(F)(F)F)cn2)C1)S(=O)(=O)c1cccc(C(F)(F)F)c1 [Compound 684] = 5.10

Please look at the following molecule next.
Task item: State recorded pIC50 with Human Cav 2.2 channels (Homo sapiens, UniProt Q00975), entry CC(C)([C@H]1C[C@H](NC(=O)c2ccc(OCC(F)(F)F)nc2)C1)S(=O)(=O)c1cccc(C(F)(F)F)c1 [Compound 674] , no comment.
Reply: 5.52

* * *

Test system: human α1G T-type channels (Homo sapiens)
Protocol text: T-type calcium channel block, whole cell patch clamp, α1G
Reported conditions: HEK cells stably expressing human α1G; mainly non-inactivated protocol; values above 10,000 nM represented as 10000
Exercise: for every item that follows, state its recorded IC50.

Some molecules with known IC50 results, for comparison:
O=C(NC1CCC(S(=O)(=O)c2cccc(C(F)(F)F)c2)CC1)c1cnc(C(F)(F)F)nc1 (stereo not drawn) [Compound 9] = 1130 nM
O=C(CN[C@H]1CC[C@@H](S(=O)(=O)c2cccc(C(F)(F)F)c2)CC1)NC1CCCCC1 [Compound 56] = 820 nM
CC(C)(CNC(=O)c1ccc(C(F)(F)F)cn1)S(=O)(=O)c1cccc(C(F)(F)F)c1 [Compound 476] = 400 nM
CS(=O)(=O)c1cc(C(F)(F)F)ccc1C(=O)N[C@H]1CC[C@@](F)(S(=O)(=O)c2cccc(C(F)(F)F)c2)CC1 [Compound 239] = 1610 nM
O=C(N[C@H]1CC[C@@H](S(=O)(=O)c2cccc(C(F)(F)F)c2)CC1)c1ccc(OCC(F)(F)F)nc1 [Compound 197] = > 10000 nM
O=C(NC[C@H]1C[C@@H](S(=O)(=O)c2cccc(C(F)(F)F)c2)C1)c1ccnc(C(F)(F)F)c1 [Compound 386] = 490 nM
O=C(NC1CCC(S(=O)(=O)c2cccc(C(F)(F)F)c2)CC1)c1ccc(C(F)(F)F)cn1 (stereo not drawn) [Compound 10] = 4200 nM
CC(C)S(=O)(=O)c1cc(C(F)(F)F)cnc1C(=O)NC[C@H]1C[C@H](S(=O)(=O)c2cccc(C(F)(F)F)c2)C1 [Compound 374] = 7730 nM

Task item: Give IC50 for the following molecule: CC(C)(CNC(=O)c1nc2cc(C(F)(F)F)ccc2[nH]1)S(=O)(=O)c1cccc(C(F)(F)F)c1 [Compound 457]
Reply: 560 nM

* * *

Test system: human α1H T-type channels (Homo sapiens, UniProt O95180)
Protocol text: T-type calcium channel block, whole cell patch clamp, α1H
Reported conditions: HEK cells stably expressing human α1H; mainly non-inactivated protocol; values above 10,000 nM represented as 10000
Exercise: for every item that follows, state its recorded IC50.
Numbers only, in µM.

Some compounds with known IC50 results, for comparison:
O=C(N[C@H]1CC[C@@H](CS(=O)(=O)c2cccc(C(F)(F)F)c2)CC1)c1ccc(Cl)c(F)c1 = 3.61
CC(C)(CNC(=O)c1ccc(F)c(Cl)c1)S(=O)(=O)c1cccc(C(F)(F)F)c1 = 3.69
CC(C)(C(=O)NCCc1ccc(Cl)c(Cl)c1)S(=O)(=O)c1cccc(C(F)(F)F)c1 = 2.41

Would you be so kind as to report IC50 for each listed record?
1. O=C(N[C@H]1CC[C@H](S(=O)(=O)c2cccc(C(F)(F)F)c2)CC1)c1ccc(Cl)c(C(F)(F)F)c1
2. CC(C)(C)CC(=O)N[C@H]1CC[C@@](F)(S(=O)(=O)c2cccc(C(F)(F)F)c2)CC1
3. CC1(S(=O)(=O)c2cccc(C(F)(F)F)c2)CCC(NC(=O)c2cc(F)cc(Cl)c2)CC1 (stereo not drawn)

Reply:
1. 2.97
2. 2.23
3. 3.02

Would you be so kind as to report IC50 for each listed record?
1. CC(C)S(=O)(=O)c1cc(C(F)(F)F)cnc1C(=O)N[C@H]1CC[C@@H](CS(=O)(=O)c2cccc(C(F)(F)F)c2)CC1
2. O=C(N[C@H]1CC[C@H](S(=O)(=O)c2cccc(C(F)(F)F)c2)CC1)c1ccc(C(F)(F)F)cn1
3. CC1(NC(=O)CN[C@H]2C[C@H](CS(=O)(=O)c3cccc(C(F)(F)F)c3)C2)CCC1
4. O=C(N[C@H]1CC[C@@](F)(S(=O)(=O)c2cccc(C(F)(F)F)c2)CC1)c1cnc(C(F)(F)F)nc1
5. O=C(N[C@H]1CC[C@@](F)(S(=O)(=O)c2cc(F)cc(C(F)(F)F)c2)CC1)c1cc(F)cc(Cl)c1

Reply:
1. 0.76
2. 0.55
3. 7.43
4. 7.18
5. 1.48

Would you be so kind as to report IC50 for each listed record?
1. O=C(N[C@H]1CC[C@@H](S(=O)(=O)c2cccc(C(F)(F)F)c2)CC1)c1ccc(Cl)c(OC(F)(F)F)c1
2. O=C(N[C@H]1CC[C@](F)(S(=O)(=O)c2cccc(C(F)(F)F)c2)CC1)c1nc2cc(C(F)(F)F)ccc2[nH]1

Reply:
1. 0.4
2. 0.46

* * *

Exercise: for every item that follows, state its recorded CAv3.2 IC50 Ratio closed/inact..
Test system: T-type calcium channel (Homo sapiens, UniProt O95180)
Protocol text: T-type channel blocking, FLIPR data (Table 6)
Format: cell-based
Reported conditions: CAv3.2, ratio closed/inactivated IC50
One number for each entry.

O=S(=O)(c1cc(F)cc(C(F)(F)F)c1)[C@H]1C[C@@H](CNc2ccnc(C(F)(F)F)n2)C1 [Compound 651] = 1.8
CC(C)([C@H]1C[C@@H](NC(=O)c2ccc(C(F)(F)F)cn2)C1)S(=O)(=O)c1cccc(C(F)(F)F)c1 [Compound 575] = 1.3
CC(C)([C@H]1C[C@H](NS(=O)(=O)c2ccc(C(F)(F)F)nc2)C1)S(=O)(=O)c1cccc(C(F)(F)F)c1 [Compound 668] = 1.3
CC(C)S(=O)(=O)c1cc(C(F)(F)F)cnc1C(=O)N[C@H]1C[C@@H](CC(C)(C)S(=O)(=O)c2cccc(C(F)(F)F)c2)C1 [Compound 729] = 1.2
CC(C)(C1CC(CNC(=O)c2ccc(OCC(F)(F)F)nc2)C1)S(=O)(=O)c1cccc(C(F)(F)F)c1 (stereo not drawn) [Compound 619] = 2.6

Please look at the following molecule next.
Task item: Give CAv3.2 IC50 Ratio closed/inact. for the following molecule: CC(C)(C1CC(CNC(=O)c2cnc(C(F)(F)F)nc2)C1)S(=O)(=O)c1cccc(C(F)(F)F)c1 (stereo not drawn) [Compound 616]
Reply: 1.6

* * *

Test system: CAv1.2 (Homo sapiens)
Protocol text: FLIPR data, CAv1.2 channel blocking (Table 6)
Format: cell-based
Reported conditions: inactivated state, read-out: CAv1.2 IC50 Inact.
Exercise: for every item that follows, state its recorded log10 of IC50.
Scale: decimal log of IC50, IC50 in µM.

CC(C)([C@H]1C[C@@H](NS(=O)(=O)c2ccc(Cl)c(F)c2)C1)S(=O)(=O)c1cc(F)cc(C(F)(F)F)c1 = 0.35
CC(C)([C@H]1C[C@H](NC(=O)c2ccc(C(F)(F)F)cc2S(C)(=O)=O)C1)S(=O)(=O)c1cccc(OC(F)(F)F)c1 = 0.72
CC(C)([C@H]1C[C@@H](NC(=O)c2ccc(C(F)(F)F)cn2)C1)S(=O)(=O)c1cccc(C(F)(F)F)c1 = 0.73
CC(C)S(=O)(=O)c1cc(C(F)(F)F)cnc1C(=O)N[C@H]1C[C@H](C(C)(C)S(=O)(=O)c2cc(F)cc(C(F)(F)F)c2)C1 = 0.90
CC(C)(C1CC(CNC(=O)c2ccnc(C(F)(F)F)c2)C1)S(=O)(=O)c1cccc(C(F)(F)F)c1 (stereo not shown) = -0.17

Would you be so kind as to report log10 of IC50 for each listed record?
1. CC(C)([C@H]1C[C@H](NS(=O)(=O)c2ccc(Cl)c(F)c2)C1)S(=O)(=O)c1cccc(C(F)(F)F)c1
2. Cn1nc(C(F)(F)F)cc1C(=O)N[C@H]1C[C@H](CC(C)(C)S(=O)(=O)c2cccc(C(F)(F)F)c2)C1
3. CC(C)([C@H]1C[C@H](NC(=O)c2ccnc(C(F)(F)F)n2)C1)S(=O)(=O)c1cccc(OC(F)(F)F)c1
4. CC(C)([C@H]1C[C@@H](NS(=O)(=O)c2ccc(OC(F)(F)F)cc2)C1)S(=O)(=O)c1cccc(C(F)(F)F)c1
5. CC(C)([C@H]1C[C@@H](CNC(=O)c2ccc(Cl)c(OC(F)(F)F)c2)C1)S(=O)(=O)c1cccc(C(F)(F)F)c1

Reply:
1: 0.62; 2: 0.44; 3: 0.88; 4: 0.49; 5: -0.35
